- System: TK-10 renal
- test: NCI tumour cell line growth inhibition, 48 h; in the data active = GI50 below about 0.43 µM; inactive = the rest
A correct response names exactly one class from true (1) = active, false (0) = inactive

Worked set:
| compound | target_under_test | category_label |
| --- | --- | --- |
| Nc1nc(/C=C\c2ccccc2)nc(N2CCN(c3ccccc3)CC2)n1 | TK-10 renal | false (0) |
| Cc1cc(Nc2cc(N3CCN(C)CC3)nc(/C=C/c3ccccc3)n2)n[nH]1 | TK-10 renal | false (0) |
| Clc1ccccc1-c1nnc2c(Cc3ccccc3)nc3ccccc3n12 | TK-10 renal | false (0) |
| CCN(Cc1cccc(Cl)c1)c1ccc(CO)c(Cl)c1 | TK-10 renal | true (1) |
| CN1CCN(C(=O)COc2ccc(/C=C3\CC4C5CC=C6CC(Cl)CCC6(C)C5CCC4(C)C3=O)cc2)CC1 (stereo not drawn) | TK-10 renal | false (0) |

Ask: Which outcome was assigned to `Cc1cc2c(-c3nc4ccccn4c3N)c(O)c(O)cc2c(O)c1-c1c(C)cc2c(-c3nc4ccccn4c3N)c(O)c(O)cc2c1O` in this test?
Result: false (0)

Ask: Please share the test call associated with `CC(=O)[C@H]1CCC/C=C/[C@@H]2C[C@H](O)C[C@H]2[C@H](O)/C=C/C(=O)O1` .
Result: true (1)

Ask: Dear all, I need the recorded test outcome for `CCCCCCCC/C=C/CCCCCCCC1=NC(C)(C)CN1CCO` , thank you.
Result: false (0)

###

- Test system: NCI-H460 lung
- test: NCI tumour cell line growth inhibition, 48 h
readout_name: TGI

Here is how some molecules turned out for TGI.
| molecule | readout_name | assay_result |
| --- | --- | --- |
| CCNC(=O)OCc1c(COC(=O)NCC)c(-c2ccc(Cl)c(Cl)c2)n2c1CCC2 | TGI | 25.7 µM |
| CO[C@H]1CC(O[C@@H]2/C(C)=C/C[C@@H]3C[C@@H](C[C@]4(CC[C@H](C)[C@@H](C5CCCCC5)O4)O3)OC(=O)[C@@H]3C=C(C)/C(=N/O)[C@H]4OC/C(=C\C=C\[C@@H]2C)[C@]43O)O[C@@H](C)C1O (stereo partly specified) | TGI | 1.51 µM |
| O=C(Nc1ccc(Cl)c(Cl)c1)C(=O)C(C(=O)c1ccccc1-c1ccccc1)C1OC(=O)c2ccccc21 (stereo unspecified) | TGI | 62.6 µM |

Ask: Give TGI only, for `Clc1cccc(-c2nnc(-c3nn(-c4ccccc4)c4nc5ccccc5nc34)o2)c1` , using NCI-H460 lung data.
Result: > 100 µM

Ask: Fill: TGI (NCI-H460 lung) for this molecule `CCOC(=O)c1c(NC(=S)Nc2ccc(Cl)cc2)sc2c1CCN(C)C2`
Result: > 100 µM

Ask: Consider the molecule `Nc1nc(NCCCO)cc(=O)[nH]1` tested on NCI-H460 lung; state its TGI.
Result: > 100 µM

Ask: Quote NCI-H460 lung TGI for entry CCCCCCCCCOCC(COP(=O)([O-])OCC[N+](C)(C)C)OC (stereo unspecified) .
Result: > 100 µM

Ask: Provide TGI, tested on NCI-H460 lung, for `CSc1ccc(Nc2cc(=O)[nH]c(=O)[nH]2)cc1` .
Result: > 100 µM

Ask: For NCI-H460 lung, give TGI of the listed molecule: `Cc1cc(C)c(-c2noc(-c3ccc(Cl)cc3)c2C2=NCCCN2)c(C)c1`
Result: 28.8 µM

Ask: Would you please give the reported TGI of O=C(c1ccc(Cl)cc1)C(O)c1ccc(Cl)cc1 (stereo unspecified) with NCI-H460 lung?
Result: > 100 µM

Ask: Name the value of TGI reported for CCOC(=O)C(C#N)C1=CC(=O)C(=O)c2ccc(O)cc21 (stereo unspecified) when tested on NCI-H460 lung.
Result: > 100 µM

###

- Tested on: OVCAR-4 ovarian
- test: NCI tumour cell line growth inhibition, 48 h
Measured TGI, listed per entry for reference.

| compound | TGI |
| --- | --- |
| CCOC(=O)c1nc2cc(C(F)(F)F)ccc2nc1Nc1ccc(C(=O)OC)s1 | > 100 µM |
| Nc1ccccc1C(=O)CCC1C(=O)NC(=S)NC1=O | > 100 µM |

For the next question, use this compound.
Ask: Give a short answer stating reported TGI for O=C(O)C1[O][Sb][O]C(C(=O)O)C1O (stereo not drawn) .
Result: > 100 µM

###

- Tested on: PC-3 prostate
- test: NCI tumour cell line growth inhibition, 48 h; in the data active = GI50 below about 0.43 µM; inactive = the rest
Write down one outcome, taken from active, inactive

Consider the following illustrative entries.
| compound | target_under_test | category_label |
| --- | --- | --- |
| CC(C)COc1nc2c(c(=O)n(C)c(=O)n2C)n1C | PC-3 prostate | inactive |
| Cc1cc(C)c(-c2c(N)cc(Br)cc2Br)c(N)c1 | PC-3 prostate | inactive |

Ask: I would be grateful if you could indicate the recorded call for `CN1CCN(Cc2ccc(NC(=O)c3cncc(C#Cc4cnc(N)c5cccnc45)c3)cc2C(F)(F)F)CC1` .
Result: inactive

Ask: Hey, what did the test say about `Cc1cc2c(-c3nc4ccccn4c3N)c(O)c(O)cc2c(O)c1-c1c(C)cc2c(-c3nc4ccccn4c3N)c(O)c(O)cc2c1O` ?
Result: inactive

Ask: Recorded call for `CC(=O)[C@H]1CCC/C=C/[C@@H]2C[C@H](O)C[C@H]2[C@H](O)/C=C/C(=O)O1` ?
Result: inactive

Ask: Recorded test outcome, item CN1CCN(C(=O)COc2ccc(/C=C3\CC4C5CC=C6CC(Cl)CCC6(C)C5CCC4(C)C3=O)cc2)CC1 (stereo not drawn)
Result: inactive

Ask: Query: recorded result category for `Cc1cc(-c2cc(O)ccc2Cl)cc2nnc(Nc3ccc(OCCN4CCCC4)cc3)nc12` in this test
Result: active

Ask: For `N#Cc1cnc(Nc2cc(NC[C@H]3CNCCO3)c(C(F)(F)F)cn2)cn1` , which call appears in the assay record?
Result: inactive

Ask: Record lookup: outcome of this test for CC(=O)N1N=C(c2ccc(Nc3nc(Nc4ccc(F)cc4)nc(Nc4ccc(F)cc4)n3)cc2)CC1c1ccc(N(C)C)cc1 (stereo not drawn) ?
Result: inactive

Ask: Please share the test call associated with C=CCC(N[C@@H](CO)c1ccccc1)c1cn(C(=O)OCC)c2ccccc12 (stereo partly drawn) .
Result: inactive

Ask: Test call for this compound, please: CCCCCCCCCCCCOC1C(CNC(=O)C2OC3OC(C)(C)OC3C2NC(=O)CN2CCN(c3ccc(OC)cc3)CC2)OC2OC(C)(C)OC21 (stereo not drawn)
Result: inactive

Ask: For C=CCC(N[C@H](CO)c1ccccc1)c1cn(Cc2ccccc2Cl)c(=O)n(Cc2ccccc2Cl)c1=O (stereo partly drawn) , which call appears in the assay record?
Result: inactive

Ask: Tell me the assay call for `COC(=O)c1oc2c(C(=O)/C=C/c3ccc(OC)cc3)c(OCCN(C)C)ccc2c1C` please.
Result: inactive

###

- Test system: SK-MEL-5 melanoma
- test: NCI tumour cell line growth inhibition, 48 h
readout_name: TGI

Take a look at these entries with their results.
| molecule | TGI |
| --- | --- |
| Cc1ccc2nc(C(C)C)c(=O)[nH]c2c1 | > 100 µM |
| O=C(Nc1ccc(Cl)cc1Cl)OC(Cn1cncn1)c1ccc(Cl)cc1Cl (stereo unspecified) | 30.7 µM |
| CSc1nc2c(c(=O)n1C)N=C(c1ccc([N+](=O)[O-])cc1)CC(c1ccccc1)N2 (stereo unspecified) | > 100 µM |
| CC(=O)c1ccc2c(c1)CC1(C2)Cc2cc3c(c(C(=O)O)c2C1)CCC3 (stereo unspecified) | > 100 µM |
| O=C(/C=C\c1cccc2ccccc12)c1ccc(Cl)cc1Cl | > 100 µM |

Ask: Param request: TGI | system SK-MEL-5 melanoma | item `O=C1NN(Cc2ccccc2)C(=O)N2CCC[C@@H]12`
Result: > 100 µM

###

- Tested on: NCI-H23 lung
- test: NCI tumour cell line growth inhibition, 48 h; in the data active means GI50 below about 0.43 µM; inactive means the rest
A correct response names exactly one class from active, inactive

| compound | category_label |
| --- | --- |
| CC(C)CCCCCCCCCCCCC(=O)NCC(=O)NC1C(O)C(O)C(Nc2ncnc3nc[nH]c23)OC1C(O)CO (stereo not drawn) | active |
| C=CCC(N[C@@H](CO)c1ccccc1)c1cn(C(=O)OCC)c2ccccc12 (stereo partly drawn) | inactive |
| COc1ccc(/C=C2/SC(Nc3nc(-c4nc(NC5=NC(=O)/C(=C\c6ccc(OC)cc6)S5)sc4C)c(C)s3)=NC2=O)cc1 | inactive |
| O=[N+]([O-])c1cc([N+](=O)[O-])c(Nn2c3ccccc3c3ccccc32)c([N+](=O)[O-])c1 | active |
| Cn1c2c(c3c(Cl)nncc31)Cc1ccccc1-2 | inactive |

Ask: Outcome logged for CCCCCCCCCCCCOC1C(CNC(=O)C2OC3OC(C)(C)OC3C2NC(=O)CN2CCN(c3ccc(OC)cc3)CC2)OC2OC(C)(C)OC21 (stereo not drawn) in this assay:
Result: inactive

Ask: Would you mind telling me which call this test gave `Cc1cn(Cc2ccc(C34CC5CC(CC(C5)C3)C4)c(O)c2)c(=O)[nH]c1=O` ?
Result: inactive

Ask: For this compound, state the assay outcome: C=CCC(N[C@H](CO)c1ccccc1)c1cn(Cc2ccccc2Cl)c(=O)n(Cc2ccccc2Cl)c1=O (stereo partly drawn)
Result: inactive
